- Test system: NCI-H929 complex spheroids, viability % test/control
- Assay Overview: Anticancer human tumor NCI-H929 cell line growth inhibition [RAS];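 further: compound exposure lasted seven days before viability was read; 100% = DMSO vehicle control viability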
- Condition Summary: second compound 0.1 µM; first compound 0.0316 µM; hits give low values
Observed Property: viability, T/C (%)
Give the quantity in %, number only.

Nc1ccn(C2OC(CO)C(O)C2(F)F)c(=O)n1 (configuration not stated) + C=CC(=O)N1CCN(c2nc(OCC3CCCN3C)nc3c(F)c(-c4nc(N)cc(C)c4C(F)(F)F)c(Cl)cc23)C(C)C1: 1.86

Entry CC(=O)OC12COC1CC(O)C1(C)C(=O)C(O)C3=C(C)C(OC(=O)C(O)C(NC(=O)OC(C)(C)C)c4ccccc4)CC(O)(C(OC(=O)c4ccccc4)C21)C3(C)C (configuration not stated) + C#Cc1c(F)ccc2cc(O)cc(-c3ncc4c(N5CC6CCC(C5)N6)nc(OCC56CCCN5CC(F)C6)nc4c3F)c12 ; viability, T/C = 1.76

---

Measured viability, T/C of individual entries
- Test system: NCI-H929 complex spheroids, viability % test/control
- Assay Overview: Anticancer human tumor NCI-H929 cell line growth inhibition [RAS];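 further: compound exposure lasted seven days before viability was read; 100% = DMSO vehicle control viability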
- Condition Summary: second compound 0.00949 µM; first compound 0.00949 µM; hits give low values
Give the quantity in %, number only.

Use the examples below as a reference point.
CCc1c2c(nc3ccc(O)cc13)-c1cc3c(c(=O)n1C2)COC(=O)[C@]3(O)CC + CCn1c(-c2cc(N3CCN(C)CC3)cnc2C(C)OC)c2c3cc(ccc31)-c1csc(n1)CC(NC(=O)C1CC1C)C(=O)N1CCCC(N1)C(=O)OCC(C)(C)C2: 1.72
CC1(C)CCC(Nc2ncc(C(F)(F)F)c(-c3c[nH]c4c(P(C)(C)=O)c(C#N)ccc34)n2)CN1 (centres undefined) + CCn1c(-c2cc(N3CCN(C)CC3)cnc2C(C)OC)c2c3cc(ccc31)-c1csc(n1)CC(NC(=O)C1CC1C)C(=O)N1CCCC(N1)C(=O)OCC(C)(C)C2: 8.42
CCc1c2c(nc3ccc(O)cc13)-c1cc3c(c(=O)n1C2)COC(=O)[C@]3(O)CC + CCn1c(-c2cccnc2C(C)OC)c2c3cc(ccc31)N1CCOC(CC(NC(=O)C(C(C)C)N(C)C(=O)C3(F)CCN(C(=O)C#CC(C)(C)N(C)C)CC3)C(=O)N3CCCC(N3)C(=O)OCC(C)(C)C2)C1: 0.87

Could you now consider this next compound?
Kindly note: NCI-H929 complex spheroids, viability % test/control, CC1(C)CCC(Nc2ncc(C(F)(F)F)c(-c3c[nH]c4c(P(C)(C)=O)c(C#N)ccc34)n2)CN1 (centres undefined) + CCn1c(-c2cccnc2C(C)OC)c2c3cc(ccc31)N1CCOC(CC(NC(=O)C(C(C)C)N(C)C(=O)C3(F)CCN(C(=O)C#CC(C)(C)N(C)C)CC3)C(=O)N3CCCC(N3)C(=O)OCC(C)(C)C2)C1 , viability, T/C value reported: 4.24

---

Measured viability, T/C of individual entries
- System: NCI-H929 complex spheroids, viability % test/control
- Assay Overview: Anticancer human tumor NCI-H929 cell line growth inhibition [RAS];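 further: compound exposure lasted seven days before viability was read; 100% = DMSO vehicle control viability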
- Condition Summary: second compound 0.0316 µM; first compound 0.1 µM; hits give low values
Give the quantity in %, number only.

Use the examples below as a reference point.
NC1c2ccccc2OC12CCN(c1cnc3c(N4CCCc5ncccc54)n[nH]c3n1)CC2 (stereo not given) + C=CC(=O)N1CCN(c2nc(OCC3CCCN3C)nc3c(F)c(-c4nc(N)cc(C)c4C(F)(F)F)c(Cl)cc23)C(C)C1: 99.7
C=CC(=O)Nc1cc(Nc2nccc(-c3cn(C)c4ccccc34)n2)c(OC)cc1N(C)CCN(C)C + C#Cc1c(F)ccc2cc(O)cc(-c3ncc4c(N5CC6CCC(C5)N6)nc(OCC56CCCN5CC(F)C6)nc4c3F)c12: 95.4
Nc1ccn(C2OC(CO)C(O)C2(F)F)c(=O)n1 (stereo not given) + C#Cc1c(F)ccc2cc(O)cc(-c3ncc4c(N5CC6CCC(C5)N6)nc(OCC56CCCN5CC(F)C6)nc4c3F)c12: 1.71
CCC(CC)c1cc(NC2CCC(N)C2)n2nccc2n1 (stereo not given) + C#Cc1c(F)ccc2cc(O)cc(-c3ncc4c(N5CC6CCC(C5)N6)nc(OCC56CCCN5CC(F)C6)nc4c3F)c12: 95.2

Entry C[C@@H](NC(=O)c1ncnc(N)c1Cl)c1ncc(C(=O)Nc2cc(C(F)(F)F)c(Cl)cn2)s1 + C=CC(=O)N1CCN(c2nc(OCC3CCCN3C)nc3c(F)c(-c4nc(N)cc(C)c4C(F)(F)F)c(Cl)cc23)C(C)C1 ; viability, T/C = 94.1
